Starred links: 1 amine or outer side, 2 acyl side, 3 side chain; linkers in the order of their positions; H or OH if unused. Non-standard residues stand in square brackets, D forms with d. Residues, ends and D or L forms follow the SMILES beside them. *: point of attachment. Pmp = N[C@@H](Cc1ccc(CP(=O)(O)O)cc1)C(=O)O; X1 = O=C(Cn1cc(CCCN[*:1])nn1)[*:2]; Ac6c = NC1(C(=O)O)CCCCC1; NHPentyl = CCCCCN*
Measured pKd on Growth factor receptor-bound protein 2 (Homo sapiens, UniProt P62993) follows.
Sequence (P62993 whole entry): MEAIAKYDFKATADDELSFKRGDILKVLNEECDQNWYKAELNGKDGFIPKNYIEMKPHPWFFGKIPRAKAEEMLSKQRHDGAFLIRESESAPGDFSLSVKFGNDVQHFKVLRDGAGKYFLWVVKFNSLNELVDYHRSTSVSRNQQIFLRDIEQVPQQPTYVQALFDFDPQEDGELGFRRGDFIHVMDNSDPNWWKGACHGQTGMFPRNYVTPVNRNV
Give only the number. pKd is defined as minus log10 of concentration in molar units.

Item: CCCCCNC(=O)[C@H](CC(N)=O)NC(=O)C1(NC(=O)[C@H](Cc2ccc(CP(=O)(O)O)cc2)NC(=O)Cn2cc(CCCNC(=O)[C@H](CC(N)=O)NC(=O)C3(NC(=O)[C@H](Cc4ccc(CP(=O)(O)O)cc4)NC(C)=O)CCCCC3)nn2)CCCCC1 (Ac-[Pmp][Ac6c]N[X1][Pmp][Ac6c]N-NHPentyl) | pKd: 8.96

Query `NC(=O)C[C@@H]1NC(=O)C2(CCCCC2)NC(=O)[C@H](Cc2ccc(CP(=O)(O)O)cc2)NC(=O)Cn2cc(nn2)CCCNC(=O)[C@H](CC(N)=O)NC(=O)C2(CCCCC2)NC(=O)[C@H](Cc2ccc(CP(=O)(O)O)cc2)NC(=O)Cn2cc(nn2)CCCNC1=O` yields pKd of 8.74
